molecular target: Histidine kinase 4 (Arabidopsis thaliana) (UniProt Q9C5U0); assay: Activation of Arabidopsis thaliana CRE1/AHK4 cytokinin receptor relative to trans-zeatin; design: concentration or dose not given beside the values
Sequence (Q9C5U0 whole entry): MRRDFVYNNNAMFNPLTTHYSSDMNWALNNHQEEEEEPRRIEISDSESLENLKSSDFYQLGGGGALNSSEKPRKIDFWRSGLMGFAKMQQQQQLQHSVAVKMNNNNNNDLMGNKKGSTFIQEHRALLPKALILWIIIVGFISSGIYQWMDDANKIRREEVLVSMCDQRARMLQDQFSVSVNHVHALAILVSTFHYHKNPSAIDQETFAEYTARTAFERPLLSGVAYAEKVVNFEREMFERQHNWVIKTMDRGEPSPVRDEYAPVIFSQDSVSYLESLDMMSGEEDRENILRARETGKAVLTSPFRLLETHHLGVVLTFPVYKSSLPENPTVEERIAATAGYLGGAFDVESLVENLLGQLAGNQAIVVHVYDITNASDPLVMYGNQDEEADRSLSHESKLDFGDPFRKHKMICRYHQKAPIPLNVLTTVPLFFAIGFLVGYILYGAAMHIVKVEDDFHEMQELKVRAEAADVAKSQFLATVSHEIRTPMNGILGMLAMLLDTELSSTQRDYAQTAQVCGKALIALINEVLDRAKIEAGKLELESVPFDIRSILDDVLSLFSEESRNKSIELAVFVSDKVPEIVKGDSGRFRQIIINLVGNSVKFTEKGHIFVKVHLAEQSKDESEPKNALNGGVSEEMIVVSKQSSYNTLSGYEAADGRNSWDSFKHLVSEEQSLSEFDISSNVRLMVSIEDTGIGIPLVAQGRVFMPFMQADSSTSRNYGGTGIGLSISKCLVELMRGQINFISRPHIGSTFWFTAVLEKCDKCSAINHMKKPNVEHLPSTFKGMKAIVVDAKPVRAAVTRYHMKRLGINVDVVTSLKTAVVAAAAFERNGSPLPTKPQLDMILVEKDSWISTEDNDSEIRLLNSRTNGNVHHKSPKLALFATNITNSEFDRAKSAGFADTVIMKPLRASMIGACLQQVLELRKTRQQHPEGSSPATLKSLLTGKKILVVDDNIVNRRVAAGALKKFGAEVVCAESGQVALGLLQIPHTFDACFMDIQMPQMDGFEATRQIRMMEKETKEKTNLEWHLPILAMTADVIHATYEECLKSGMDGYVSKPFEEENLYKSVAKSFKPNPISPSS
measured_metric: Activity (%)
Numbers only, in %.

compound	system_tested	units_label	recorded_result
OC[C@H]1O[C@@H](n2cnc3c(NCc4ccc(F)cc4)ncnc32)[C@H](O)[C@@H]1O	Histidine kinase 4 (Arabidopsis thaliana) (UniProt Q9C5U0)	%	0.39
OC[C@H]1O[C@@H](n2cnc3c(NCc4ccc(Cl)cc4)ncnc32)[C@H](O)[C@@H]1O	Histidine kinase 4 (Arabidopsis thaliana) (UniProt Q9C5U0)	%	0.23
OC[C@H]1O[C@@H](n2cnc3c(NCc4ccccc4F)ncnc32)[C@H](O)[C@@H]1O	Histidine kinase 4 (Arabidopsis thaliana) (UniProt Q9C5U0)	%	0.12
COc1ccccc1CNc1ncnc2c1ncn2[C@@H]1O[C@H](CO)[C@@H](O)[C@H]1O	Histidine kinase 4 (Arabidopsis thaliana) (UniProt Q9C5U0)	%	0.12

Now turn to the next compound.
stdin: Please give the measured Activity for this compound: OC[C@H]1O[C@@H](n2cnc3c(NCc4ccccc4)ncnc32)[C@H](O)[C@@H]1O [N6-BENZYLADENOSINE]
stdout: 0.35

====

tested on: HOS; test: Antitumor activity against human HOS cells after 72 hrs by Calcein AM assay; assay type: functional, cell-based
pIC50: −log10 of the molar value.
measured_metric: pIC50

molecule	measured_metric	recorded_result
OC[C@H]1O[C@@H](n2cnc3c(NCc4ccc(F)cc4F)ncnc32)[C@H](O)[C@@H]1O	pIC50	< 3.78
OC[C@H]1O[C@@H](n2cnc3c(NCc4cccc(F)c4)ncnc32)[C@H](O)[C@@H]1O	pIC50	< 3.78
Cc1ccc(O)c(CNc2ncnc3c2ncn3[C@@H]2O[C@H](CO)[C@@H](O)[C@H]2O)c1	pIC50	< 3.78
COc1cccc(CNc2ncnc3c2ncn3[C@@H]2O[C@H](CO)[C@@H](O)[C@H]2O)c1OC	pIC50	< 3.78

stdin: Which pIC50 is reported for this molecule? Cc1ccccc1CNc1ncnc2c1ncn2[C@@H]1O[C@H](CO)[C@@H](O)[C@H]1O [METRIFUDIL]
stdout: < 3.78

====

molecular target: Histidine kinase 4 (Arabidopsis thaliana) (UniProt Q9C5U0); assay: Activation of Arabidopsis thaliana CRE1/AHK4 cytokinin receptor relative to trans-zeatin; design: concentration or dose not given beside the values
measured_metric: Activity (%)
Numbers only, in %.

Give Activity for all compounds that follow.
1. OC[C@H]1O[C@@H](n2cnc3c(NCc4ccccc4Cl)ncnc32)[C@H](O)[C@@H]1O
2. COc1ccc(CNc2ncnc3c2ncn3[C@@H]2O[C@H](CO)[C@@H](O)[C@H]2O)cc1
3. OC[C@H]1O[C@@H](n2cnc3c(NCc4cccc(F)c4)ncnc32)[C@H](O)[C@@H]1O
4. COc1cccc(CNc2ncnc3c2ncn3[C@@H]2O[C@H](CO)[C@@H](O)[C@H]2O)c1
5. OC[C@H]1O[C@@H](n2cnc3c(NCc4cccc(Cl)c4)ncnc32)[C@H](O)[C@@H]1O

stdout:
0.04
0.22
0.36
0.14
0.15

====

test system: K562; assay: Antitumor activity against human K562 cells after 72 hrs by Calcein AM assay; assay type: functional, cell-based; settings: K562, 72 h
measured_metric: IC50

1) COc1ccc(CNc2ncnc3c2ncn3[C@@H]2O[C@H](CO)[C@@H](O)[C@H]2O)c(OC)c1 > 167 µM
2) OC[C@H]1O[C@@H](n2cnc3c(NCc4ccc(F)cc4Cl)ncnc32)[C@H](O)[C@@H]1O 15.6 µM
3) OC[C@H]1O[C@@H](n2cnc3c(NCc4cccc(OC(F)(F)F)c4)ncnc32)[C@H](O)[C@@H]1O > 167 µM

stdin: Need IC50, item OC[C@H]1O[C@@H](n2cnc3c(NCc4ccc(C(F)(F)F)cc4)ncnc32)[C@H](O)[C@@H]1O
stdout: > 167 µM

====

molecular target: UniProt Q9C5U1; assay: Activation of Arabidopsis thaliana AHK3 cytokinin receptor relative to trans-zeatin; design: concentration or dose not given beside the values
Sequence (Q9C5U1 whole entry): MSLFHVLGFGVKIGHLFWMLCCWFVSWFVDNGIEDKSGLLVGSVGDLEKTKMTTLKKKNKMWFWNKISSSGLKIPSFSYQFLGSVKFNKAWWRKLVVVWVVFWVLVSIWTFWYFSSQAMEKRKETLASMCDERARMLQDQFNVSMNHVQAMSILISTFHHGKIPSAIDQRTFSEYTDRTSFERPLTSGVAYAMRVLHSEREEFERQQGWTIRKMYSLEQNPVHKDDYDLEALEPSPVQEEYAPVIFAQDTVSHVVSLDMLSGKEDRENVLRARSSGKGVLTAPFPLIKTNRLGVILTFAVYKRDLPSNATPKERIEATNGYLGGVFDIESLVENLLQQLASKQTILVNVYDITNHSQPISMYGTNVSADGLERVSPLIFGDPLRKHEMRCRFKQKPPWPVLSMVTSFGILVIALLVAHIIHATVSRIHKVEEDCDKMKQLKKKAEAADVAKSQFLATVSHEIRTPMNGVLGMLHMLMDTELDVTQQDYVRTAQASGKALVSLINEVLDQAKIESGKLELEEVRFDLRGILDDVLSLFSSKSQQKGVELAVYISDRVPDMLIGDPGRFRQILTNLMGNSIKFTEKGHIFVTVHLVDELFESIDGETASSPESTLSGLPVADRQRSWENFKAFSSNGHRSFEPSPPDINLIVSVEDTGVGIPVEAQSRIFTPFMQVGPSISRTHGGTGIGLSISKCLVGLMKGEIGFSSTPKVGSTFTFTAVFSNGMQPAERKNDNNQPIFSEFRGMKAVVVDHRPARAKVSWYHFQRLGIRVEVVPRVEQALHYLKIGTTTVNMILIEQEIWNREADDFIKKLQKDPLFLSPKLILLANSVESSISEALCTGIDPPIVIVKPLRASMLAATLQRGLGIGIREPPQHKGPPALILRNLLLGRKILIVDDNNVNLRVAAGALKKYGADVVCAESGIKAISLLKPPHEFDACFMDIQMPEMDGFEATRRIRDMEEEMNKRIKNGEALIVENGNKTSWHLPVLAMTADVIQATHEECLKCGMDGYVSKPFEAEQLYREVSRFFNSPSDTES
Assign yes (1) to entries whose Activity meets or exceeds 2%; assign no (0) to the rest.

stdin: Entry OC[C@H]1O[C@@H](n2cnc3c(NCc4ccc(F)cc4)ncnc32)[C@H](O)[C@@H]1O : is its Activity no less than 2%?
stdout: yes (1)

stdin: Given the entry OC[C@H]1O[C@@H](n2cnc3c(NCc4ccccc4F)ncnc32)[C@H](O)[C@@H]1O , answer whether its Activity meets or surpasses 2%.
stdout: yes (1)

stdin: Please indicate if the recorded Activity for OC[C@H]1O[C@@H](n2cnc3c(NCc4ccccc4Cl)ncnc32)[C@H](O)[C@@H]1O meets or exceeds 2%.
stdout: no (0)

====

tested on: K562; assay: Antitumor activity against human K562 cells after 72 hrs by Calcein AM assay; format: functional, cell-based; details: K562, 72 h
pIC50: −log10 of the molar value.
measured_metric: pIC50

Please review the following examples before continuing.
molecule	pIC50
COc1cccc(CNc2ncnc3c2ncn3[C@@H]2O[C@H](CO)[C@@H](O)[C@H]2O)c1OC	< 3.78
OC[C@H]1O[C@@H](n2cnc3c(NCc4ccccc4Cl)ncnc32)[C@H](O)[C@@H]1O	4.19
OC[C@H]1O[C@@H](n2cnc3c(NCc4ccc(OC(F)(F)F)cc4)ncnc32)[C@H](O)[C@@H]1O	< 3.78
OC[C@H]1O[C@@H](n2cnc3c(NCc4c(F)ccc(F)c4F)ncnc32)[C@H](O)[C@@H]1O	< 3.78
COc1cccc(CNc2ncnc3c2ncn3[C@@H]2O[C@H](CO)[C@@H](O)[C@H]2O)c1O	4.55
COc1cccc(CNc2ncnc3c2ncn3[C@@H]2O[C@H](CO)[C@@H](O)[C@H]2O)c1	< 3.78

Each molecule below has a reported value. Please supply its pIC50.
1. OC[C@H]1O[C@@H](n2cnc3c(NCc4ccc(F)cc4F)ncnc32)[C@H](O)[C@@H]1O
2. OC[C@H]1O[C@@H](n2cnc3c(NCc4ccccc4OC(F)F)ncnc32)[C@H](O)[C@@H]1O
3. COc1cc(CNc2ncnc3c2ncn3[C@@H]2O[C@H](CO)[C@@H](O)[C@H]2O)cc(OC)c1
4. COc1ccc(CNc2ncnc3c2ncn3C2OC(CO)[C@@H](O)[C@H]2O)c(O)c1 (stereo partly drawn)
5. OC[C@H]1O[C@@H](n2cnc3c(NCc4cc(O)cc(O)c4)ncnc32)[C@H](O)[C@@H]1O
6. COc1ccccc1CNc1ncnc2c1ncn2[C@@H]1O[C@H](CO)[C@@H](O)[C@H]1O

stdout:
1. 5.02
2. < 3.78
3. < 3.78
4. 4.09
5. < 3.78
6. 5.05

Below is a list of molecules. For each, state its recorded pIC50.
1. OC[C@H]1O[C@@H](n2cnc3c(NCc4ccc(Cl)c(Cl)c4)ncnc32)[C@H](O)[C@@H]1O
2. OC[C@H]1O[C@@H](n2cnc3c(NCc4cccc(C(F)(F)F)c4)ncnc32)[C@H](O)[C@@H]1O
3. COc1cc(CNc2ncnc3c2ncn3[C@@H]2O[C@H](CO)[C@@H](O)[C@H]2O)cc(OC)c1O
4. Cc1ccccc1CNc1ncnc2c1ncn2[C@@H]1O[C@H](CO)[C@@H](O)[C@H]1O

stdout:
4.97
< 3.78
< 3.78
< 3.78

Would you mind giving pIC50 for every molecule in the list below?
1. OC[C@H]1O[C@@H](n2cnc3c(NCc4cc(F)cc(F)c4)ncnc32)C(O)C1O (stereo partly drawn)
2. Cc1ccc(CNc2ncnc3c2ncn3[C@@H]2O[C@H](CO)[C@@H](O)[C@H]2O)cc1

stdout:
["< 3.78", "< 3.78"]

====

test system: G-361; assay: Antitumor activity against human G361 cells after 72 hrs by Calcein AM assay; type: functional, cell-based; details: G-361, 72 h
measured_metric: IC50

Consider the worked cases shown below.
compound	measured_metric	recorded_result
OC[C@H]1O[C@@H](n2cnc3c(NCc4cc(O)cc(O)c4)ncnc32)[C@H](O)[C@@H]1O	IC50	> 167 µM
OC[C@H]1O[C@@H](n2cnc3c(NCc4ccc(Br)cc4)ncnc32)[C@H](O)[C@@H]1O	IC50	> 167 µM
OC[C@H]1O[C@@H](n2cnc3c(NCc4cc(F)cc(F)c4)ncnc32)C(O)C1O (some centres not stated)	IC50	> 167 µM

List the reported IC50 of each compound below.
1. OC[C@H]1O[C@@H](n2cnc3c(NCc4ccc(Cl)cc4)ncnc32)[C@H](O)[C@@H]1O
2. OC[C@H]1O[C@@H](n2cnc3c(NCc4ccccc4Br)ncnc32)[C@H](O)[C@@H]1O
3. OC[C@H]1O[C@@H](n2cnc3c(NCc4ccc(F)cc4Cl)ncnc32)[C@H](O)[C@@H]1O
4. OC[C@H]1O[C@@H](n2cnc3c(NCc4ccccc4C(F)(F)F)ncnc32)C(O)C1O (some centres not stated)

stdout:
> 167 µM
> 167 µM
> 167 µM
> 167 µM
